# TESTED ON: UniProt:Q9ULC6
# Sequence (Q9ULC6 whole entry): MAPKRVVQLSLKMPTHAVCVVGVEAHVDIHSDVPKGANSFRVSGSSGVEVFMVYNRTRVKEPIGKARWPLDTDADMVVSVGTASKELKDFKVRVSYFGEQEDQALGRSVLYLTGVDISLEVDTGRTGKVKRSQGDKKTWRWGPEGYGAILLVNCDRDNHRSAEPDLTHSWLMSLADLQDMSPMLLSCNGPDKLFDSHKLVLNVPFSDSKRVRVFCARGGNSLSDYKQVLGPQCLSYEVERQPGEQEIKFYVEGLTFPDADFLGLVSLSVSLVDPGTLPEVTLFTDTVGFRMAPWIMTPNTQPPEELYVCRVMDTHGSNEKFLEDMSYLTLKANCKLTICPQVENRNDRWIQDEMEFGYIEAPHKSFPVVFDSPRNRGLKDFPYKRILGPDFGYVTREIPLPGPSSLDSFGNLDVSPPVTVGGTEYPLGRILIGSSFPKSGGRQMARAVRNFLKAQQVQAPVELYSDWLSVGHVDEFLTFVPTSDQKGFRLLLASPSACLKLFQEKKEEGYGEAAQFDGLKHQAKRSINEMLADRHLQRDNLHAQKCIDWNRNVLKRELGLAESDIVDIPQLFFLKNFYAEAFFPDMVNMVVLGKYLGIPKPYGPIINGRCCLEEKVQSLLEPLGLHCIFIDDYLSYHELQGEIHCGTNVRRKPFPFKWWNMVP
# TEST SUMMARY: Inhibition of PAD activity (Example 53), PAD1
# CONDITION CONTEXT: read-out: PAD1 Ki ± std error; Table 5
PROPERTY: Ki (µM)

CC(C)NC(=O)[C@H](CCn1ccnc1)NC(=O)c1ccco1
2500

[I] COC(=O)[C@H](Cn1ccnc1)NC(=O)c1ccco1
[II] Cn1cccc1C(=O)N[C@@H](Cn1ccnc1)C(=O)NCc1ccccc1
### Prompt # returns the entry with the larger Ki; inputs I and II Your choice should be expressed through its label.
### Response I

[P] CC(C)NC(=O)[C@H](CCn1cnc(CC#N)c1)NC(=O)c1ccco1
[Q] CC(C)(C)OC(=O)N[C@H](CCN=[N+]=[N-])C(=O)NCc1ccccc1
[R] O=C(N[C@@H](CCn1ccnn1)C(=O)NCc1ccccc1)c1ccc(F)cc1
### Prompt Ascending by Ki, please. Rank them, then answer with their labels in that order.
### Response P, Q, R
